meta.source: paper PMC8409943

Assay: Transepithelial transport of theaflavins across Caco-2 cell monolayers, with or without efflux transporter inhibitors
Type: in vitro ADME, Human
Conditions: human, Caco-2, Papp(BL−AP)/Papp(AP−BL), 2 h incubation, Ctrl (no inhibitor)
Measured efflux ratio at 2 h, 200 μM values are reported for all entries that follow.
Number only, no unit.

# count of solved cases: 3
{"compound": "O=C(O[C@@H]1Cc2c(O)cc(O)cc2O[C@@H]1c1cc(O)c(=O)c2c(O)c(O)cc([C@H]3Oc4cc(O)cc(O)c4C[C@H]3O)c2c1)c1cc(O)c(O)c(O)c1 [TF3G, theaflavin-3-gallate]", "attribute.measured": "efflux ratio at 2 h, 200 μM", "readout.number": 1.58}
{"compound": "O=C(O[C@@H]1Cc2c(O)cc(O)cc2O[C@@H]1c1cc(O)c(=O)c2c(O)c(O)cc([C@H]3Oc4cc(O)cc(O)c4C[C@H]3OC(=O)c3cc(O)c(O)c(O)c3)c2c1)c1cc(O)c(O)c(O)c1 [TFDG, theaflavin-3, 3’-digallate]", "attribute.measured": "efflux ratio at 2 h, 200 μM", "readout.number": 1.57}
{"compound": "O=c1c(O)cc([C@H]2Oc3cc(O)cc(O)c3C[C@H]2O)cc2c([C@H]3Oc4cc(O)cc(O)c4C[C@H]3O)cc(O)c(O)c12", "attribute.measured": "efflux ratio at 2 h, 200 μM", "readout.number": 1.24}

Would you kindly look at the next entry?
IN: Requested read-out: efflux ratio at 2 h, 200 μM. Entry: O=C(O[C@@H]1Cc2c(O)cc(O)cc2O[C@@H]1c1cc(O)c(O)c2c(=O)c(O)cc([C@H]3Oc4cc(O)cc(O)c4C[C@H]3O)cc12)c1cc(O)c(O)c(O)c1 [TF3’G, theaflavin-3’-gallate]
OUT: 1.62
